ASSAY METHOD TEXT: terephthalic acid (TPA) released, HPLC; higher = more TPA released; extreme values may be limits of the assay
CONDITION SET: PET substrate: aFilm; 70 °C; pH 8.5; 24 h
MEASURED ENDPOINT: terephthalic acid (mM)
Reply with just the number (in mM).

Short answer for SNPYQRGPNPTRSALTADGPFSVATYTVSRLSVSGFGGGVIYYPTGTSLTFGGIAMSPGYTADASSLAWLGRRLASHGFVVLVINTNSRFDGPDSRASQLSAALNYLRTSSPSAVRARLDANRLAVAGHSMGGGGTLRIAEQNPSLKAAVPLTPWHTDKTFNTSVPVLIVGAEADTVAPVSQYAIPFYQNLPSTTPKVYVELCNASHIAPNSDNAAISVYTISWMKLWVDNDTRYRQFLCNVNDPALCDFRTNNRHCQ [LCC-A2] : terephthalic acid was 0.643

---

ASSAY METHOD TEXT: terephthalic acid (TPA) released, HPLC; higher = more TPA released; extreme values may be limits of the assay
CONDITION SET: PET substrate: aFilm; 60 °C; pH 8.5; 24 h
MEASURED ENDPOINT: terephthalic acid (mM)
Number in mM, nothing else.

Summary for this sequence, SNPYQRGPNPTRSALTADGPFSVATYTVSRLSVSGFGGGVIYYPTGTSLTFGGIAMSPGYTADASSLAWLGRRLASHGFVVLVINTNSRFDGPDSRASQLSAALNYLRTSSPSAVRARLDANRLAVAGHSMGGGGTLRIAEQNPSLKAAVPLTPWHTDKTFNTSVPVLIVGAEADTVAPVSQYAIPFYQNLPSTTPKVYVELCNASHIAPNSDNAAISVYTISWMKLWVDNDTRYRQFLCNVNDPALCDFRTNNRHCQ [LCC-A2] : terephthalic acid is 0.776

---

Listing of recorded PET hydrolysis product formed by entry.
ASSAY METHOD TEXT: PET hydrolysis product formed (TPA+MHET+BHET, UV-Vis) per mg enzyme (mmol/mg enzyme); higher = more PET depolymerisation activity; extreme values may be limits of the assay
CONDITION SET: PET substrate: cryPow; 60 °C; pH 6.5; 24 h
Give your answer as a number; write no unit.

Study these solved cases before continuing.
Lab book: PET hydrolysis product formed of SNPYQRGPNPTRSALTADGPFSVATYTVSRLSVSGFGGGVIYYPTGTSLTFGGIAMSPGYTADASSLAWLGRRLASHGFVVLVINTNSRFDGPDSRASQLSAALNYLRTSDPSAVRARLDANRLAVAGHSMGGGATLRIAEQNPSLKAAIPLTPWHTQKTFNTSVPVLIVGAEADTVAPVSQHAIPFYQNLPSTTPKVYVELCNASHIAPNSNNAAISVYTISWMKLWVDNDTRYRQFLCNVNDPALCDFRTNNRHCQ [LCC-ICCG DAQI] noted as 0.0902

Recorded result, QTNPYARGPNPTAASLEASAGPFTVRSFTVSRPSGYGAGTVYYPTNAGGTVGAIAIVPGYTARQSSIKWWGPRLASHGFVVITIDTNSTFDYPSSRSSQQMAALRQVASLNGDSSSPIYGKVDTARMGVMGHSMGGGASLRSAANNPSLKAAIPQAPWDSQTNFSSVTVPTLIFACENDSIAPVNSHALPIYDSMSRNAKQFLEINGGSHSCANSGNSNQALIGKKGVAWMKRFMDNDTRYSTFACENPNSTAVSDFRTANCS [DuraPETase] , PET hydrolysis product formed: 0.0167

More entries:
Recorded result, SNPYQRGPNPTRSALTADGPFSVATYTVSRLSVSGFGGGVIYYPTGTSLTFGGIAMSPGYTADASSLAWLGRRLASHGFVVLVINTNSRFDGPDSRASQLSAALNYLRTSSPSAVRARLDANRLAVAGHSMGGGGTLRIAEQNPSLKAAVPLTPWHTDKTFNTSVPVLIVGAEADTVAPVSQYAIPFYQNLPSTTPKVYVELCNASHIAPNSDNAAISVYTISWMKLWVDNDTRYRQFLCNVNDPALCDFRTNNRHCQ [LCC-A2] , PET hydrolysis product formed: 0.152

---

The reader will find reported PET hydrolysis product formed values listed item by item below.
ASSAY METHOD TEXT: PET hydrolysis product formed (TPA+MHET+BHET, UV-Vis) per mg enzyme (mmol/mg enzyme); higher = more PET depolymerisation activity; extreme values may be limits of the assay
CONDITION SET: PET substrate: cryPow; 70 °C; pH 6.5; 2 h
Response field accepts a number only; no unit should be typed.

Reference set (5 entries):
Entry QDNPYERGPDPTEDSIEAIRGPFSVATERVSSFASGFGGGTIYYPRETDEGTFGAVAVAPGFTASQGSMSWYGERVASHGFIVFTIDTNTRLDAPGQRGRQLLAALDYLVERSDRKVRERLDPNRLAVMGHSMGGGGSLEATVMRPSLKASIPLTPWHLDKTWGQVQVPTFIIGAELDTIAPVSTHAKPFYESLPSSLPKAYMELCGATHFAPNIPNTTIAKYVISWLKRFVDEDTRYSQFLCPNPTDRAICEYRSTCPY [Cut190*SS] — recorded PET hydrolysis product formed = 0

Briefly, PET hydrolysis product formed measured for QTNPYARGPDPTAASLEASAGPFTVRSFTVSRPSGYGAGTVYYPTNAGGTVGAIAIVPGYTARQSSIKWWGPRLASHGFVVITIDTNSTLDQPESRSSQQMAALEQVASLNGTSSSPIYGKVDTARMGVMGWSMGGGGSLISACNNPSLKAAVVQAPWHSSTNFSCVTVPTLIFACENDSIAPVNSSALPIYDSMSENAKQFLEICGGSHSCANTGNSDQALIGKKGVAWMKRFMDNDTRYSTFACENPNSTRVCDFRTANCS [Z1-PETase] : 0.0288

# PET hydrolysis product formed of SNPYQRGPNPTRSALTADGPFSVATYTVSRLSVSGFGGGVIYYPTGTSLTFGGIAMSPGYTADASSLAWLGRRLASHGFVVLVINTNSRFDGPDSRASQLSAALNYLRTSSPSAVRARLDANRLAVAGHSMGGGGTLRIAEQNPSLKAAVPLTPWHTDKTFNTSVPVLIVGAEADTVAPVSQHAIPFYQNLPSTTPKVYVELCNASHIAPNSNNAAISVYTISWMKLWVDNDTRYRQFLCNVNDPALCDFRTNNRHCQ [LCC-ICCG] = 0.0349

The value of PET hydrolysis product formed measured for the sequence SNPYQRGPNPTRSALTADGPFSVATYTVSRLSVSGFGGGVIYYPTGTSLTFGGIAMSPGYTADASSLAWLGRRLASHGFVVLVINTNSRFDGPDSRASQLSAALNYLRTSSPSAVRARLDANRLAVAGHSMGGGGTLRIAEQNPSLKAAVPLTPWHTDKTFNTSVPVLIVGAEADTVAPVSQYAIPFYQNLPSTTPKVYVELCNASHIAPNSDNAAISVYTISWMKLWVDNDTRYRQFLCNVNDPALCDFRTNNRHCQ [LCC-A2] turned out to be 0.0641

Reported PET hydrolysis product formed of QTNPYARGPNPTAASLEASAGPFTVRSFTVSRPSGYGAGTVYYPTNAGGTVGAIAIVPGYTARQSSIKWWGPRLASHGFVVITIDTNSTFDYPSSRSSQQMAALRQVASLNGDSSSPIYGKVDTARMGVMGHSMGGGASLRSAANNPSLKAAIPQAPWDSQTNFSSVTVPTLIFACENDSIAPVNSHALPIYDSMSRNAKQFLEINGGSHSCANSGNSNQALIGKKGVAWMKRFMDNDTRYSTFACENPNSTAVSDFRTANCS [DuraPETase] : 0

---
Recorded result, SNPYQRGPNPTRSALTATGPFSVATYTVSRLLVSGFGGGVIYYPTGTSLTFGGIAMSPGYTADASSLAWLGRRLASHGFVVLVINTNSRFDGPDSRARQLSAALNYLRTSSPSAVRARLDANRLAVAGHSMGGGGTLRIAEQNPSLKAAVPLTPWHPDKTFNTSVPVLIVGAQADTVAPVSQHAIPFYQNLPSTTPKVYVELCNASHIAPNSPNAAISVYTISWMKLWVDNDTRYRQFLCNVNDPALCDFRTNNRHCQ [LCC-ICCG I6M] , PET hydrolysis product formed: 0.0289

---

ASSAY METHOD TEXT: PET hydrolysis product formed (TPA+MHET+BHET, UV-Vis) per mg enzyme (mmol/mg enzyme); higher = more PET depolymerisation activity; extreme values may be limits of the assay
CONDITION SET: PET substrate: aFilm; 60 °C; pH 4.5; 2 h
MEASURED ENDPOINT: PET hydrolysis product formed
Form field (numeric): enter value without unit.

Use the examples below as a reference point.
Memo: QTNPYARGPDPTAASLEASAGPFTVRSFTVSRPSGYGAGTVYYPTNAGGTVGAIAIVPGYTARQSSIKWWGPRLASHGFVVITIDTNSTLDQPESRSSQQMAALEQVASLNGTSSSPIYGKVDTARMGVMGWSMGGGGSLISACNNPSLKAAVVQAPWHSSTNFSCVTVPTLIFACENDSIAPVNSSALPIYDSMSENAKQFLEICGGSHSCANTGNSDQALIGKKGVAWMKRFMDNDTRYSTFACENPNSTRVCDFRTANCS [Z1-PETase] , reported PET hydrolysis product formed: 0

Form field PET hydrolysis product formed, entry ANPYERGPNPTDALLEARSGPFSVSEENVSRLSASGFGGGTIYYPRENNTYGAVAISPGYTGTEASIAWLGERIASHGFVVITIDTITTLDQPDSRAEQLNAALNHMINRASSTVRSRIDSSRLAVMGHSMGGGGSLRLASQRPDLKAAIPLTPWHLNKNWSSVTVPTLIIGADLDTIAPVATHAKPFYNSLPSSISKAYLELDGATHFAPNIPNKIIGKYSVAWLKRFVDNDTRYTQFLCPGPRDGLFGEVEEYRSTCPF [TfCut2] : 0

Okay, next one:
PET hydrolysis product formed recorded for this sequence, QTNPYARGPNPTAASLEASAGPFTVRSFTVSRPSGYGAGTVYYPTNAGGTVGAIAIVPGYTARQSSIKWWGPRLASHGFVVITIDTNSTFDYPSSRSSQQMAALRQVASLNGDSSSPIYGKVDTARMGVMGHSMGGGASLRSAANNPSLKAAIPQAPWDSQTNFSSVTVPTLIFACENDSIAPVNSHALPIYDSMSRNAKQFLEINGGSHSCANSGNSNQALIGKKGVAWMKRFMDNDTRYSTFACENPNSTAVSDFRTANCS [DuraPETase] , is 0
